The compounds below each have a reported pIC50 tested on CRBN-DDB1 (Homo sapiens, UniProt Q96SW2); the values come from various publications.
Please note pIC50 is a logarithmic value: minus log10 of concentration in mol/L. Answer with that number alone.

Below, each entry is followed by its recorded pIC50 result.
{"columns": ["compound", "measured_on", "pIC50"],
 "data": [
  ["Cc1nc2cccc(SCCN3CCN(Cc4ccc(C56CC7CC(CC(C7)C5)C6)cc4)CC3)c2c(=O)n1C1CCC(=O)NC1=O (centres unmarked)", "CRBN-DDB1 (Homo sapiens, UniProt Q96SW2)", 5.70],
  ["O=C1CCC(N2Cc3cc(NC4CN(Cc5ccccc5-c5ccc(Cl)cc5)C4)ccc3C2=O)C(=O)N1 (centres unmarked)", "CRBN-DDB1 (Homo sapiens, UniProt Q96SW2)", 6.18],
  ["CC1(C)CCC(CN2CC3CCC2CN3Cc2ccc3c(c2F)CN(C2CCC(=O)NC2=O)C3=O)=C(c2ccc(Cl)cc2)C1 (centres unmarked)", "CRBN-DDB1 (Homo sapiens, UniProt Q96SW2)", 6.26],
  ["CC1(C)CCC(CN2CCCN(C(=O)c3ccc4c(c3)CN(C3CCC(=O)NC3=O)C4=O)CC2)=C(c2ccc(Cl)cc2)C1 (centres unmarked)", "CRBN-DDB1 (Homo sapiens, UniProt Q96SW2)", 5.91],
  ["CC1(C)CCC(CN2CCN(Cc3ccc4c(c3)CN(C3CCC(=O)NC3=O)C4=O)CC2)=C(c2ccco2)C1 (centres unmarked)", "CRBN-DDB1 (Homo sapiens, UniProt Q96SW2)", 6.24],
  ["Cc1nc2cccc(CN3CCN(CCC45CC6CC(CC(C6)C4)C5)CC3)c2c(=O)n1C1CCC(=O)NC1=O (centres unmarked)", "CRBN-DDB1 (Homo sapiens, UniProt Q96SW2)", 6.00],
  ["Cc1nc2cccc(SCCCN3CCN(CC45CC6CC(CC(C6)C4)C5)CC3)c2c(=O)n1C1CCC(=O)NC1=O (centres unmarked)", "CRBN-DDB1 (Homo sapiens, UniProt Q96SW2)", 5.62],
  ["O=C1CCC(N2Cc3c(CN4CCN(Cc5ccccc5-c5ccc(F)cc5)CC4)cccc3C2=O)C(=O)N1 (centres unmarked)", "CRBN-DDB1 (Homo sapiens, UniProt Q96SW2)", 5.98],
  ["CC1(C)CN(c2cc(F)c([C@H]3CCC(=O)NC3=O)c(F)c2)C[C@H]1C(=O)O", "CRBN-DDB1 (Homo sapiens, UniProt Q96SW2)", 7.62],
  ["O=C1CCC(N2Cc3cc(CN4CC5CN(Cc6ccccc6-c6ccc(Cl)cc6)CC5C4)ccc3C2=O)C(=O)N1 (centres unmarked)", "CRBN-DDB1 (Homo sapiens, UniProt Q96SW2)", 6.23]
]}

Q. Which pIC50 is listed for O=C1CCC(N2Cc3cc(CN4CC5(CCN(C(=O)c6ccccc6-c6ccc(Cl)cc6)CC5)C4)ccc3C2=O)C(=O)N1 (centres unmarked) ?
A. 6.23

Q. Could you tell me which pIC50 is on file for CC1(C)CCC(C(=O)N2CCN(Nc3ccc4c(c3)CN(C3CCC(=O)NC3=O)C4=O)CC2)=C(c2ccc(Cl)cc2)C1 (centres unmarked) ?
A. 5.83

Q. Quick one: pIC50 for O=C1CCC(N2Cc3cc(CN4CCN(Cc5ccc(-c6ccc(Cl)cc6)nc5)CC4)ccc3C2=O)C(=O)N1 (centres unmarked) ?
A. 6.14

Q. For the compound shown here, O=C1CCC(N2C(=O)c3ccc(C(=O)N4CCN(Cc5cccc(-c6ccc(Cl)cc6)c5)CC4)cc3C2=O)C(=O)N1 (centres unmarked) , give the reported pIC50.
A. 5.76

Q. Returns the measured pIC50 for the input compound. Input: O=C1CCC(N2Cc3cc(CN4CCN(Cc5ccccc5-c5ccc(F)cc5)CC4)c(F)cc3C2=O)C(=O)N1 (centres unmarked)
A. 6.03
